A collection of compounds and their measured cell viability
- System: SEM cells
- assay.summary: cell viability relative to DMSO control; higher = less cytotoxic
- condition.parameters: HPLM + 10% dialyzed FBS; 48 h; 46.1 µM

compound	cell viability
Cc1onc(-c2ccccc2Cl)c1C(=O)N[C@@H]1C(=O)N2[C@@H]1SC(C)(C)[C@@H]2C(=O)[O-]	90%
C[C@]12COC(=O)C[C@@H]1CC[C@@H]1[C@@H]2CC[C@@]2(C)[C@H]1CC[C@]2(C)O	88.4%
CC[C@H](/C=C/[C@@H](C)[C@H]1CC[C@H]2[C@@H]3CC=C4C[C@@H](O)CC[C@]4(C)[C@H]3CC[C@]12C)C(C)C	89.3%
O=C(Nc1cc(Cl)cc2c1[nH]c1cnccc12)c1cccnc1	113%
O=C(NCC1CCCCN1)c1cc(OCC(F)(F)F)ccc1OCC(F)(F)F (centres undefined)	43.7%
CNCCCC12CCC(c3ccccc31)c1ccccc12	59.5%
CC(C)C1NC(=O)C(NC(=O)C2=C3\N=C\4/C(=C(C)\C(=O)\C(=C4C(=O)NC5C(C)OC(=O)C(C(C)C)N(C)C(=O)CN(C)C(=O)C6CCCN6C(=O)C(NC5=O)C(C)C)N)OC3=C(C)C=C2)C(C)OC(=O)C(C(C)C)N(C)C(=O)CN(C)C(=O)C7CCCN7C1=O (centres undefined)	1.57%
C[C@](Cc1c[nH]c2ccccc12)(NC(=O)OC1C2CC3CC(C2)CC1C3)C(=O)NC[C@H](NC(=O)CCC(=O)O)c1ccccc1 (some centres undefined)	120%
ClC1=CC=C(C=C1)C(C#N)C2=C(Cl)C=C(C=C2Cl)N3\N=C/C(=O)NC3=O (centres undefined)	107%

====

- Tested on: SEM cells
- assay.summary: cell viability relative to DMSO control; higher = less cytotoxic
- condition.parameters: HPLM + 10% dialyzed FBS; 48 h; 15.4 µM
A collection of compounds and their measured cell viability
assay.metric: cell viability

structure.smiles	study.system	endpoint.result
CC(C)N[C@@H]1CCn2c(=O)[nH]c3cccc(c32)[C@H]1O	SEM cells	122%
C[S+](=O)([O-])Nc1ccc([N+](=O)[O-])cc1Oc1ccccc1	SEM cells	109%
COc1cc(F)c(F)c(Nc2ccc(I)cc2F)c1N[S+](=O)([O-])C1(C[C@H](O)CO)CC1	SEM cells	104%
C[C@H]1C[C@@H]2[C@H](CC[C@@]3(C)[C@H]2CC[C@]3(OC(C)=O)C(C)=O)[C@@]\4(C)CCC(=O)\C=C14	SEM cells	88.9%
FC1=C(C=C(C\C2=N\NC(=O)C3=C2C=CC=C3)C=C1)C(=O)N4CCN(CC4)C(=O)C5CC5	SEM cells	19.7%
CCC[C@H](NC(=O)[C@@H]1[C@H]2CCC[C@H]2CN1C(=O)[C@@H](NC(=O)[C@@H](NC(=O)c1cnccn1)C1CCCCC1)C(C)(C)C)C(=O)C(=O)NC1CC1	SEM cells	111%
CC(C)(O)CC[C@@H](O)[C@](C)(O)[C@H]1CC[C@@]2(O)C/3=C/C(=O)[C@@H]4C[C@@H](O)[C@@H](O)C[C@]4(C)[C@H]3CC[C@]12C	SEM cells	89.7%
S=C(NCc1ccc2c(c1)OCO2)N1CCN(c2ncnc3c2oc2ccccc23)CC1	SEM cells	79.4%
OC[C@H]1O[C@H]([C@H](O)[C@@H]1O)N2\C=C/C(=O)NC2=O	SEM cells	92.7%
O=C(Nc1cc(Cl)cc2c1[nH]c1cnccc12)c1cccnc1	SEM cells	127%

====

A collection of compounds and their measured AUC of viability dose-response curve
- Test system: P12-Ichikawa
- assay.summary: AUC of viability dose-response curve (% viability x log10 dose units); higher = less sensitive
- condition.parameters: RPMI 5 mM glucose + 10% dialyzed FBS; 48 h

compound	study.system	AUC of viability dose-response curve
CC(C)c1nc(CN(C)C(=O)N[C@H](C(=O)N[C@@H](Cc2ccccc2)C[C@H](O)[C@H](Cc2ccccc2)NC(=O)OCc2cncs2)C(C)C)cs1	P12-Ichikawa	396
CCC1(c2ccccc2)C(=O)NCNC1=O	P12-Ichikawa	466
Clc1ccc(-c2nc3sccn3c2/C=N/OCc2ccc(Cl)c(Cl)c2)cc1	P12-Ichikawa	454
CC(C)OC(=O)C(C(=O)OC(C)C)=C1S\C=C/S1	P12-Ichikawa	424
COc1cc(OC2CCN(C)CC2)ccc1Nc1ncc2c(n1)n(C1CCCC1)c(=O)n2C	P12-Ichikawa	363
CCN(CC)CCCCNc1ncc2cc(-c3cc(OC)cc(OC)c3)c(NC(=O)NC(C)(C)C)nc2n1	P12-Ichikawa	404
CC[S+](=O)([O-])c1cccc(-c2cc(C(=O)NC3CCN(C)CC3)c(C)c3[nH]c4ncc(C)cc4c23)c1	P12-Ichikawa	320
CC(C)(C)OC(=O)N[C@H]1CCCCC/C=C\[C@@H]2C[C@@]2(C(=O)N[S+](=O)([O-])C2CC2)NC(=O)[C@@H]2C[C@@H](OC(=O)N3Cc4cccc(F)c4C3)CN2C1=O	P12-Ichikawa	459
ClC1=C[NH]N=C1C\2NC(=N\C3=C2C(=O)CCC3)/NC4=NC5=CC=CC=C5O4 (stereo unspecified)	P12-Ichikawa	455
C[C@H]1COC2=C3N1\C=C(C(O)=O)/C(=O)C3=CC(=C2N4CCN(C)CC4)F	P12-Ichikawa	416
N[S+]([O-])(=O)C1=CC=C(NC/2=C/C(=O)C3=CC=CC=C3C2=O)C=C1	P12-Ichikawa	459
CCOC(=O)N1CCN(/[N+]([O-])=N/Oc2ccc([N+](=O)[O-])cc2C#N)CC1	P12-Ichikawa	328
NNCCc1ccccc1	P12-Ichikawa	470
CC(C)(CO)[C@@H](O)C(=O)NCCC(=O)O	P12-Ichikawa	463
Cc1nc2cnc3ccc(C#Cc4cccnc4)cc3c2n1-c1ccc(C(C)(C)C#N)cc1	P12-Ichikawa	255
CN(C)C(=N)NC(=N)N	P12-Ichikawa	457

====

- Test system: NOMO1
- assay.summary: cell viability relative to DMSO control; higher = less cytotoxic
- condition.parameters: HPLM + 10% dialyzed FBS; 48 h; 0.000781 µM

molecule	cell viability, %
CC(C)OC(=O)/C1=C/N(CC(C)(C)C2=C1[NH]C3=CC=CC=C23)C(=O)C4=CC=C(F)C(=C4)F	86.3
CC(=O)O[C@@]1(CC[C@H]2[C@@H]3\C=C(Cl)/C4=C/C(=O)[C@@H]5C[C@@H]5[C@]4(C)[C@H]3CC[C@]12C)C(C)=O	95.1
COc1ccccc1OCC(O)COC(N)=O (stereo not given)	79.5
Nc1ncnc2c1ncn2[C@@H]1O[C@@H](CO)[C@H](O)[C@@H]1O	94.2
Cc1nc2cnc3ccc(C#Cc4cccnc4)cc3c2n1-c1ccc(C(C)(C)C#N)cc1	72.6

====

- Test system: P12-Ichikawa
- assay.summary: cell viability relative to DMSO control; higher = less cytotoxic
- condition.parameters: RPMI 5 mM glucose + 10% FBS; 48 h; 0.00702 µM
A collection of molecules and their measured cell viability
assay.metric: cell viability (%)

molecule	endpoint.result
C[C@@H](Oc1cc(-c2cnn(C3CCNCC3)c2)cnc1N)c1c(Cl)ccc(F)c1Cl	123
O=C(Nc1cccc(C(F)(F)F)c1)Nc1cc([S+](=O)([O-])NC2CC2)ccc1-c1ccsc1	119
C[C@]12COC(=O)C[C@@H]1CC[C@@H]1[C@@H]2CC[C@@]2(C)[C@H]1CC[C@]2(C)O	101
COc1cc(F)c(F)c(Nc2ccc(I)cc2F)c1N[S+](=O)([O-])C1(C[C@H](O)CO)CC1	128
O=C(O)CCC1CCC(c2cc(F)ccc2F)([S+](=O)([O-])c2ccc(Cl)cc2)CC1 (stereo not drawn)	117
CNCC(O)c1ccc(O)cc1 (stereo not drawn)	114
Cc1ccccc1C(=O)c1ccc(Nc2ccc(Br)cc2N)cc1Cl	121
CNC(=O)c1ccc(N2C(=S)N(c3cnc(C#N)c(C(F)(F)F)c3)C(=O)C23CCC3)cc1F	97.5
NNCCc1ccccc1	120
COc1ccccc1OCC(O)COC(N)=O (stereo not drawn)	117
CCN1CCN(c2ccc(Nc3cc(N(C)C(=O)Nc4c(Cl)c(OC)cc(OC)c4Cl)ncn3)cc2)CC1	119
CC(C)N[C@@H]1CCn2c(=O)[nH]c3cccc(c32)[C@H]1O	121
COCC1(CO)C(=O)C2CCN1CC2 (stereo not drawn)	109

====

- Test system: SEM cells
- assay.summary: AUC of viability dose-response curve (% viability x log10 dose units); higher = less sensitive
- condition.parameters: RPMI 5 mM glucose + 10% FBS; 48 h
A collection of molecules and their measured AUC of viability dose-response curve
assay.metric: AUC of viability dose-response curve

molecule	endpoint.result
CC(C)(C)NC(=O)Nc1cccc(Nc2ncc(F)c(NC(C)(C)CO)n2)c1	396
C[C@]12COC(=O)C[C@@H]1CC[C@@H]1[C@@H]2CC[C@@]2(C)[C@H]1CC[C@]2(C)O	457
CCC[S+]([O-])c1ccc2[nH]c(NC(=O)OC)nc2c1 (centres undefined)	399
Nc1ncnc2c1ncn2[C@@H]1O[C@@H](CO)[C@H](O)[C@@H]1O	466
